FYI, the data here is from patent US20200055939A1.

TARGET DESC: T1, huMICB*005 alpha 3-his (human)
T1 construct: whole construct entry: GS, alpha 3 domain, GNS, His8; also called MICB005.His; MICB*005 alpha3 construct
T1 chain: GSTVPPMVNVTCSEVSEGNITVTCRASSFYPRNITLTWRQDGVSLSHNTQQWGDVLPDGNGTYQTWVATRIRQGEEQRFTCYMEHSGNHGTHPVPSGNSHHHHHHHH
TEST: SPR, Biacore 8K, antibody on Protein A chip
REPORTED ENDPOINT: pKd
Please treat pKd as minus the base-10 logarithm of the molar concentration.

{"columns": ["BINDER", "pKd"],
 "data": [
  ["1D5v11 (antibody, IgG1, V domains shown, humanized variant of 1D5) VH: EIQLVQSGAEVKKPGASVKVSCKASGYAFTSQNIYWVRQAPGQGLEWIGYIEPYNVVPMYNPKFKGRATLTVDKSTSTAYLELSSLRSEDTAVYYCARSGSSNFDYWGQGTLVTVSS VL: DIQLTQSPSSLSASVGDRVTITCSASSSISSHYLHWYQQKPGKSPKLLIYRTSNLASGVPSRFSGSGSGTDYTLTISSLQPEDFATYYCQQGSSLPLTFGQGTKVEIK", 8.86]
]}

Next:
Param item = 1D5v9 (antibody, IgG1, V domains shown, humanized variant of 1D5) VH: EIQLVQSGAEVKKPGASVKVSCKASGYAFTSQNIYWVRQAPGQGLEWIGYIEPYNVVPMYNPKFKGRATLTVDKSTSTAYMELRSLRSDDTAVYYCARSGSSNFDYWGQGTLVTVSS VL: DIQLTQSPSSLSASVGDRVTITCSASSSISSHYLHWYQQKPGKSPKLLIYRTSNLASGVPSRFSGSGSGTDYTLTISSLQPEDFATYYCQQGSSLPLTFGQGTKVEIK ; retrieve measured pKd.
8.82
